Values from patent US12139486B2

- Target desc: human recombinant GR (Homo sapiens, UniProt P04150)
- Sequence (P04150 whole entry): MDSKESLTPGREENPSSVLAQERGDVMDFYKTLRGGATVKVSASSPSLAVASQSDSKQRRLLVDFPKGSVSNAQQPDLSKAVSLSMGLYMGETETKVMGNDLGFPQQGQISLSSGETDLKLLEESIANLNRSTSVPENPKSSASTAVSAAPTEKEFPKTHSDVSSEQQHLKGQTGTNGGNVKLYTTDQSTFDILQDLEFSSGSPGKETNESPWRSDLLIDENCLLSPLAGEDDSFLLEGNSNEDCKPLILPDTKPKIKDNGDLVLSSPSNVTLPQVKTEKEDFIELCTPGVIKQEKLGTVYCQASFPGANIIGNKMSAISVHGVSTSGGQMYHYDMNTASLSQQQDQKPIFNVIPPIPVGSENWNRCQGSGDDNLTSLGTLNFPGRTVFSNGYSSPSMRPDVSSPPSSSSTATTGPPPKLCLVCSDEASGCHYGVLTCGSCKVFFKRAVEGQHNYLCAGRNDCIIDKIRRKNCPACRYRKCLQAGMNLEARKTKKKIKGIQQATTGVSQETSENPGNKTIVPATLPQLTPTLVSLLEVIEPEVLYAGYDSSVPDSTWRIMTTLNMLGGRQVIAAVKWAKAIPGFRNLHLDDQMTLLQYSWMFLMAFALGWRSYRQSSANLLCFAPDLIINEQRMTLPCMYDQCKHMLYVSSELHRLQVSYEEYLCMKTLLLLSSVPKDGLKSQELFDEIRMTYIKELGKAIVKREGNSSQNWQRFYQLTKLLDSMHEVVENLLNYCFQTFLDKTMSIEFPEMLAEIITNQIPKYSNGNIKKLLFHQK
- Test description: Human Glucocorticoid Receptor (GR) Fluorescence Polarisation (FP) Binding Assay
- Cond: Ki from IC50 by ligand depletion correction; displacement of Fluorome GS Red
Measurement kind: Ki

Some compounds with recorded Ki:
Summary: O=C(c1ccccn1)[C@]12Cc3cnn(-c4ccc(F)cc4)c3C[C@@H]1CCN(S(=O)(=O)c1ccc(C(F)(F)F)c(F)c1)C2 , human recombinant GR (Homo sapiens, UniProt P04150), Ki = > 1 nM

Lab note: compound O=C(c1ccccn1)[C@]12Cc3cnn(-c4ccc(F)cc4)c3C[C@@H]1CCN(S(=O)(=O)c1cccc(C(F)(F)F)n1)C2 tested on human recombinant GR (Homo sapiens, UniProt P04150); recorded Ki was 0.5 to 1 nM

Entry O=C(c1nccs1)[C@]12Cc3cnn(-c4ccc(F)cc4)c3C[C@@H]1CCN(S(=O)(=O)c1cccc(C(F)(F)F)n1)C2 ; assay system human recombinant GR (Homo sapiens, UniProt P04150); Ki recorded at 0.5 to 1 nM

# lookup: Cc1ccnc(C(=O)[C@]23Cc4cnn(-c5ccc(F)cc5)c4C[C@@H]2CCN(S(=O)(=O)c2cnn(C)n2)C3)c1 on human recombinant GR (Homo sapiens, UniProt P04150), Ki = < 0.5 nM

Summary line: CCn1ncc(S(=O)(=O)N2CC[C@H]3Cc4c(cnn4-c4ccc(F)cc4)C[C@]3(C(=O)c3ccccn3)C2)n1 , human recombinant GR (Homo sapiens, UniProt P04150), reported Ki = < 0.5 nM

Would you kindly look at the next entry?
Let me check: Cn1ncc(S(=O)(=O)N2CC[C@H]3Cc4c(cnn4-c4ccc(F)cc4)C[C@]3(C(=O)c3nccs3)C2)n1 , system human recombinant GR (Homo sapiens, UniProt P04150), measured Ki is > 1 nM

* * *

Collected pKi values appear next to each entry.
- Target desc: human recombinant GR (Homo sapiens, UniProt P04150)
- Test description: Human Glucocorticoid Receptor (GR) Fluorescence Polarisation (FP) Binding Assay
- Cond: Ki from IC50 by ligand depletion correction; displacement of Fluorome GS Red
pKi: −log10 of the molar value.

Example entries and their recorded answers appear below.
# pKi of CC(C)n1ncc(S(=O)(=O)N2CC[C@H]3Cc4c(cnn4-c4ccc(F)cc4)C[C@]3(C(=O)c3ccccn3)C2)n1 = > 9.30

// pKi lookup, compound = O=C(c1ccccn1)[C@]12Cc3cnn(-c4ccc(F)cc4)c3C[C@@H]1CCN(S(=O)(=O)c1ccc(Cl)c(Cl)c1)C2 , result: < 9.00

Entry under test: O=C(c1ccccn1)[C@]12Cc3cnn(-c4ccc(F)cc4)c3C[C@@H]1CCN(S(=O)(=O)c1cccc(C(F)(F)F)c1)C2 . Its pKi was < 9.00

Record summary for O=C(c1ccccn1)[C@]12Cc3cnn(-c4ccc(F)cc4)c3C[C@@H]1CCN(S(=O)(=O)c1cccc(F)c1)C2 : reported pKi = < 9.00

Given item CCCn1ncc(S(=O)(=O)N2CC[C@H]3Cc4c(cnn4-c4ccc(F)cc4)C[C@]3(C(=O)c3cscn3)C2)n1 , the value recorded as its pKi is > 9.30

--- query ---
Notebook: N#Cc1cccc(S(=O)(=O)N2CC[C@H]3Cc4c(cnn4-c4ccc(F)cc4)C[C@]3(C(=O)c3ccccn3)C2)c1 , pKi read as < 9.00
